System: 786-0 renal
procedure.details: NCI tumour cell line growth inhibition, 48 h; in the data active means GI50 below about 0.43 µM; inactive means the rest
Please state which outcome applies, choosing from true (1) (active), false (0) (inactive)

// query What is the recorded call for this compound in the test? Cc1cccc(Oc2ccc(Nc3ncnc4ccc(NC(=O)CN(C)C)cc34)cc2Cl)c1
// result false (0)

// query What is the recorded call for this compound in the test? COc1cc2c3c(n(CCCN)c(=O)c2cc1OC)-c1ccc(N)cc1C3=O
// result false (0)

// query What is the recorded call for this compound in the test? O=C(/C=C(\[O-])c1ccccc1)CCCCCCC(=O)/C=C(\[O-])c1ccccc1.O=C(/C=C(\[O-])c1ccccc1)CCCCCCC(=O)/C=C(\[O-])c1ccccc1.O=C(/C=C(\[O-])c1ccccc1)CCCCCCC(=O)/C=C(\[O-])c1ccccc1.[Y+3].[Y+3]
// result false (0)

Further cases:
// query What is the recorded call for this compound in the test? CC(=O)O[C@H]1C[C@@H]2[C@@]3(C)CC[C@H]4C[C@@]4(C)[C@@H]3CC[C@@]2(C)C2=CCC3=C(COC3=O)[C@]21C
// result false (0)

// query What is the recorded call for this compound in the test? COc1cc2c(cc1OCCN1CCN(CCN3C(=O)c4cccc5cccc(c45)C3=O)CC1)N=C[C@@H]1CCCN1C2=O
// result false (0)

// query What is the recorded call for this compound in the test? N#C[Se]CCN1C(=O)c2ccccc2C1=O
// result false (0)

====

Tested on: BT-549 breast
procedure.details: NCI tumour cell line growth inhibition, 48 h; in the data active means GI50 below about 0.43 µM; inactive means the rest
Please state which outcome applies, choosing from 1 (yes) (active), 0 (no) (inactive)

The following compounds have reported results that may help.
// query What is the recorded call for this compound in the test? CC1=C(C(=O)Nc2ccc3[nH]ncc3c2)C(c2ccc(F)cc2)N=C(c2ccc(C(F)(F)F)nc2)N1 (stereo unspecified)
// result 0 (no)

// query What is the recorded call for this compound in the test? O=[N+]([O-])c1ccc(N/N=C\c2cc(Br)ccc2O)nc1
// result 0 (no)

// query What is the recorded call for this compound in the test? Cc1ccc(-c2nc([P+](c3ccccc3)(c3ccccc3)c3ccccc3)c(N3CCOCC3)o2)cc1
// result 1 (yes)

Further cases:
// query What is the recorded call for this compound in the test? CNCc1cccc2c1OCCOCCOCCNS(=O)(=O)c1ccc(cc1)-c1cnc(N)c(n1)C(=O)N2
// result 0 (no)

// query What is the recorded call for this compound in the test? COc1cc2c(cc1C)NC(=O)/C2=C\c1ccc(Oc2ccccc2)cc1
// result 0 (no)

// query What is the recorded call for this compound in the test? CC(=O)O[C@H]([C@H](OC(C)=O)[C@H](C)OC(C)=O)[C@@H](/C=C/[C@H]1CC=CC(=O)O1)OC(C)=O
// result 0 (no)

// query What is the recorded call for this compound in the test? N#C[Se]CCN1C(=O)c2ccccc2C1=O
// result 0 (no)

// query What is the recorded call for this compound in the test? Cc1cccc(Oc2ccc(Nc3ncnc4ccc(NC(=O)CN(C)C)cc34)cc2Cl)c1
// result 0 (no)

====

System: SK-OV-3 ovarian
procedure.details: NCI tumour cell line growth inhibition, 48 h
Overview of recorded TGI for various compounds

The compound listed as NC1=C(c2nc(-c3ccccc3)cs2)C(c2ccco2)c2c(c3ccccc3oc2=O)O1 (configuration not stated) shows TGI equal to > 100 µM

Further cases:
The compound listed as COc1ccccc1CNCCCN1C(=O)c2ccc3c4c(ccc(c24)C1=O)C(=O)N(CCCNCc1ccccc1OC)C3=O shows TGI equal to 1 µM

The compound listed as O=[N+]([O-])c1ccc2c3c1[C@@H]1O[C@@H]1c1cccc(c1-3)[C@@H]1O[C@H]21 shows TGI equal to 44.3 µM

The compound listed as COc1ccc([C@@H]2[C@@H](Oc3ccccc3)C(=O)N2c2cc(OC)c(OC)c(OC)c2)cc1F shows TGI equal to > 100 µM

The compound listed as O=C1Nc2ccc(Cl)cc2/C1=N/c1nc(-c2ccc(Cl)cc2)cs1 shows TGI equal to 4.54 µM

The compound listed as COc1ccc(Cn2c(Br)c3c(c2-c2cc(OC)c(OC)c(OC)c2)CCc2sc(N)nc2-3)cc1 shows TGI equal to 8.04 µM

The compound listed as CN(C)CCCC1(c2ccc(F)cc2)OCc2cc(-c3csc4ccccc34)ccc21 (configuration not stated) shows TGI equal to 3.12 µM

The compound listed as c1ccc(C(NC2=NCCO2)C2CC2)cc1 (configuration not stated) shows TGI equal to > 100 µM

The compound listed as O=C(Nc1ccc(Cl)cc1Cl)C1C(=O)OC2(CCCCC2)OC1=O shows TGI equal to 32.2 µM

The compound listed as ON1CCc2c([nH]c3ccccc23)C1c1ccc(Cl)cc1 (configuration not stated) shows TGI equal to > 100 µM

The compound listed as COc1cc2c(Oc3ccc(-c4cnc(Nc5ccc(F)cc5)n(C)c4=O)cc3F)ccnc2cc1OCCCN1CCOCC1 shows TGI equal to 3.39 µM

The compound listed as O=c1c(Oc2ccc(F)cc2F)cc2cnc(NC3CCOCC3)nc2n1C1CC1 shows TGI equal to > 25 µM
